List of AUC of viability dose-response curve values.
System: P12-Ichikawa
Test details: AUC of viability dose-response curve (% viability x log10 dose units); higher = less sensitive
Condition context: RPMI 5 mM glucose + 10% FBS; 48 h
Output spec: single numeric token, no unit.

Examples from the recorded data:
NC(=O)c1cnccn1: 465
O=C(CN1C(=O)C2(CCCC2)NC[C@H]1c1cc(F)cc(F)c1)Nc1ccc2c(c1)C[C@@]1(C2)C(=O)Nc2ncccc21: 466
CCN(CC)CCNC(=O)c1c(C)[nH]c(/C=C2\C(=O)Nc3ccc(F)cc32)c1C: 266
CC/C=C\C[C@H]1C(=O)CC[C@@H]1CC(=O)OC: 451
Cc1cn2cc(C(=O)N(C)CCO)cc(N[C@@H]3CCOc4cccc(C)c43)c2n1: 470

Q. Request the reported AUC of viability dose-response curve associated with CN(C)C/C=C/C(=O)Nc1ccc(C(=O)Nc2cccc(Nc3ncc(Cl)c(-c4c[nH]c5ccccc45)n3)c2)cc1
A. 234

Q. Quick one: CC1(COc2ccc3c(c2)ncn3-c2ccc3cccc(N4CCC(N)CC4)c3n2)COC1
A. 403

###

List of AUC of viability dose-response curve values.
Test system: NOMO1
Test details: AUC of viability dose-response curve (% viability x log10 dose units); higher = less sensitive
Condition context: RPMI 5 mM glucose + 10% FBS; 48 h
Output spec: single numeric token, no unit.

N[S+](=O)([O-])c1ccc(Nc2nc(OCC3CCCCC3)c3[nH]cnc3n2)cc1: 346
CCC(C)CCCCC(=O)N[C@@H](CCN)C(=O)NC(C(=O)N[C@H](CCN)C(=O)N[C@@H]1CCNC(=O)C([C@@H](C)O)NC(=O)[C@@H](CCN)NC(=O)[C@@H](CCN)NC(=O)[C@@H](CC(C)C)NC(=O)[C@H](Cc2ccccc2)NC(=O)[C@H](CCN)NC1=O)[C@@H](C)O (stereo partly specified): 451
CC[C@H]1OC(=O)[C@H](C)[C@@H](O[C@H]2C[C@@](C)(OC)[C@@H](O)[C@H](C)O2)[C@H](C)[C@@H](O[C@@H]2O[C@H](C)C[C@H](N(C)C)[C@H]2O)[C@](C)(OC)C[C@@H](C)C(=O)[C@H](C)[C@@H](O)[C@]1(C)O: 440

Q. Request the reported AUC of viability dose-response curve associated with NCCCC(N)(C(=O)O)C(F)F (stereo unspecified)
A. 443

Q. Quick one: C[C@H](CCC(=O)O)[C@H]1CC[C@H]2[C@@H]3[C@H](O)C[C@@H]4C[C@H](O)CC[C@]4(C)[C@H]3CC[C@]12C
A. 436

Q. Quick one: c1cc(-c2cnn3cc(-c4ccc(OCCN5CCCCC5)cc4)cnc23)ccn1
A. 397

Q. Quick one: CC(C)(N)C(=O)N[C@H](COCc1ccccc1)C(=O)N1CCC2(CC1)CN([S+](C)(=O)[O-])c1ccccc12
A. 460

Q. Quick one: CCOC(=O)c1c(C)n(C)c2ccc(O)cc12
A. 455

Q. Quick one: CCC(CCCC)COC(=O)C(\C#N)=C(\c1ccccc1)c2ccccc2 (stereo unspecified)
A. 439

Q. Quick one: C[C@@H]1CC[C@@]2(CC[C@]3(C)\C(=C/C[C@@H]4[C@@]5(C)CC[C@H](O)C(C)(C)[C@@H]5CC[C@@]34C)[C@@H]2[C@H]1C)C(O)=O
A. 461

Q. Quick one: CCNC(=O)CCC/C=C\C[C@@H]1[C@@H](/C=C/C(O)CCc2ccccc2)[C@@H](O)C[C@@H]1O (stereo partly specified)
A. 456

Q. Quick one: O=C(O)CCCCCC(=O)NN=C1CCCC1
A. 414

Q. Quick one: CO[C@H]1CCC(O[C@H]2C[C@H]([C@]3(C)CC[C@]4(C[C@H](O)[C@@H](C)[C@@H]([C@@H](C)/C=C(\C)C(=O)[C@H](C)C[C@H](C)C(=O)[O-])O4)O3)O[C@]3(O[C@@H]([C@H]4O[C@@](O)(CO)[C@H](C)C[C@@H]4C)C[C@@H]3C)[C@@H]2C)O[C@@H]1C (stereo partly specified)
A. 449

Q. Quick one: CN1CCc2c(n(Cc3ccc(C(=O)NO)cc3)c3ccccc23)C1
A. 440

Q. Quick one: CCCCCCNC(=O)N1\C=C(F)/C(=O)NC1=O
A. 468

Q. Quick one: N=C(N)NC(=N)NCCc1ccccc1
A. 456

###

Test system: NOMO1
Test details: cell viability relative to DMSO control; higher = less cytotoxic
Condition context: HPLM + 10% dialyzed FBS; 48 h; 5.12 µM
List of cell viability values.
Numbers only here, please. The scale is %.

Nc1ccc(C(=O)c2cc3c(ccc4ccccc43)[nH]2)cc1: 89.5
COc1ccccc1[C@H](c1cccc2ccccc12)[C@@](C)(C#N)C(=O)N1CCC(c2cccc(C(F)(F)F)c2)CC1: 88.6
COC1=CC=C(C=C1)/C2=C(O)/C(=O)C3=C(O)C=C(O)C(=C3O2)CC=C(C)C: 124

Q. Request the reported cell viability associated with COc1c(Cl)cc2c([nH]c3cnccc32)c1NC(=O)c1cccnc1C
A. 108

Q. Quick one: CCC(C)CCCCC(=O)N[C@@H](CCN)C(=O)NC(C(=O)N[C@H](CCN)C(=O)N[C@@H]1CCNC(=O)C([C@@H](C)O)NC(=O)[C@@H](CCN)NC(=O)[C@@H](CCN)NC(=O)[C@@H](CC(C)C)NC(=O)[C@H](Cc2ccccc2)NC(=O)[C@H](CCN)NC1=O)[C@@H](C)O (some centres not stated)
A. 124

Q. Quick one: COc1cc(NCc2ccc3nc(N)nc(N)c3c2C)cc(OC)c1OC
A. 36

Q. Quick one: CN1C(=O)c2sccc2N(C)c2nc(Nc3ccc([S+](N)(=O)[O-])cc3)ncc21
A. 60.5

###

Test system: P12-Ichikawa
Test details: cell viability relative to DMSO control; higher = less cytotoxic
Condition context: RPMI 5 mM glucose + 10% dialyzed FBS; 48 h; 0.00234 µM
Value kind: cell viability (%)
Numbers only here, please. The scale is %.

Examples from the recorded data:
CNC[C@H](O)[C@@H](O)[C@H](O)[C@H](O)CO: 126
CC1(C)SCCN([S+](=O)([O-])c2ccc(OCC#CCO)cc2)[C@H]1C(=O)NO: 97.7
CCNC(=O)CCC/C=C\C[C@@H]1[C@@H](/C=C/C(O)CCc2ccccc2)[C@@H](O)C[C@@H]1O (some centres undefined): 120
CCCCCCNC(=O)N1\C=C(F)/C(=O)NC1=O: 118
Nc1ccc(C(=O)c2cc3c(ccc4ccccc43)[nH]2)cc1: 115

Q. Request the reported cell viability associated with COCCn1c2c([n+](Cc3cnccn3)c1C)C(=O)c1ccccc1C2=O
A. 108

Q. Quick one: N[S+](=O)([O-])c1ccc(Nc2nc(OCC3CCCCC3)c3[nH]cnc3n2)cc1
A. 123

Q. Quick one: CC(C)(N)c1ccc(-c2nc3ccccc3nc2-c2ccccc2)cc1
A. 117

Q. Quick one: C=CC(=O)Nc1cccc(Sc2nc(Nc3ccc(N4CCN(C)CC4)cc3)ncc2Cl)c1
A. 115

###

Test system: NOMO1
Test details: cell viability relative to DMSO control; higher = less cytotoxic
Condition context: HPLM + 10% dialyzed FBS; 48 h; 1.71 µM
Value kind: cell viability (%)
Numbers only here, please. The scale is %.

Q. Request the reported cell viability associated with CC(C)C1CCC(C(=O)N[C@H](Cc2ccccc2)C(=O)O)CC1 (stereo partly drawn)
A. 88.6

Q. Quick one: Cc1ccc(Nc2cc(-c3cccc(N4C(=O)c5ccccc5C4=O)c3)ncn2)cc1N[S+](C)(=O)[O-]
A. 140

Q. Quick one: O=C(c1cncc(Br)c1)N1CCC(N2CCCC2)CC1
A. 105

###

Test system: NOMO1
Test details: cell viability relative to DMSO control; higher = less cytotoxic
Condition context: RPMI 5 mM glucose + 10% FBS; 48 h; 46.1 µM
List of cell viability values.
Numbers only here, please. The scale is %.

Examples from the recorded data:
CN(C)C/C=C/C(=O)Nc1ccc(C(=O)Nc2cccc(Nc3ncc(Cl)c(-c4c[nH]c5ccccc45)n3)c2)cc1: 3.47
C[C@@H]1CC[C@@]2(CC[C@]3(C)\C(=C/C[C@@H]4[C@@]5(C)CC[C@H](O)C(C)(C)[C@@H]5CC[C@@]34C)[C@@H]2[C@H]1C)C(O)=O: 106
C[C@]12CCC3c4ccc(O)cc4CCC3C1CCC2=O (some centres not stated): 79.6
CN(CCOc1ccc(CC2SC(=O)NC2=O)cc1)c1ccccn1 (configuration not stated): 109

Q. Request the reported cell viability associated with Nc1nc(F)nc2c1ncn2[C@@H]1O[C@H](COP(=O)(O)O)[C@@H](O)[C@@H]1O
A. 38

Q. Quick one: CCC(C)CCCCC(=O)N[C@@H](CCN)C(=O)NC(C(=O)N[C@H](CCN)C(=O)N[C@@H]1CCNC(=O)C([C@@H](C)O)NC(=O)[C@@H](CCN)NC(=O)[C@@H](CCN)NC(=O)[C@@H](CC(C)C)NC(=O)[C@H](Cc2ccccc2)NC(=O)[C@H](CCN)NC1=O)[C@@H](C)O (some centres not stated)
A. 115

Q. Quick one: COc1cc(NCc2ccc3nc(N)nc(N)c3c2C)cc(OC)c1OC
A. 9.99
